For each record, write down the corresponding Enzyme Activity Endpoint Assay (purified): Fab'2.
- measured-target: pooled human IgG (human IgG1,2,3 and 4)
Answer in ng/µL, number only, no unit symbol.

IN: # lookup: Enzyme Activity Endpoint Assay (purified): Fab'2 of PRT-312 (protein) MQITSVWTKGVTPLTPEQFRENNEDVIHAPYLAHQGWYDITKAFDGKDNLLCGAATAGNMLHWWFDQNKTEIEAYLSKHPEKQKIIFGNQELFDLKAAIDTKDSQTNSQLFNYFRDKAFPNLSARQLGVMPDLVLDMFINGYYLNVGKTQSTDVNRPYQDKDKRGGIFDAVFTRGDQTTLLTARHDLKNKGLNDISTIIKQELTEGRALALSHTYANVSISHVINLWGADFNAEGNLEAIYVTDSDANPSIGMKKYFVGRNAHGHVAISAKKIEGENIGAQVLGLFTLSSGKDIWQKLS
OUT: 703

IN: # lookup: Enzyme Activity Endpoint Assay (purified): Fab'2 of PRT-333 (protein) MTITSVWTKGVTPPTPEDFRENNEDVLHAPYVANQGWYDITKTFDGKDNLLCGAATAGNMLHWWFDQNKEEIERYLKKHPEKQKIIFGNQELFDVKAAIDTKDSQTNSKLFNYFRDKAFPGLSARQLGVFPDLVLDMFINGYYLNLGKTQSTDVNRPYQDKDKRGGIFDAVFTRGVQTTLLTARHDLKNKGLNEISDLIKQELTEGKALALSHTYANVRINHVINLWGADFDAEGNLIAIYVTDSDANPSIGMKKYFVGRNANGKVAISAKKIEGDNIGAQVLGLFTLSTGQDIWQKLS
OUT: 794

IN: # lookup: Enzyme Activity Endpoint Assay (purified): Fab'2 of PRT-296 (protein) MVTSVWTKGVTPPADFTQGEDVFHAPYVANQGWYDITKEFNGKDDLLCGAATAGNMLHWWFDQNKEYIEAYLKKHPEKQKIMFGDQELLDVRKAINTKGSQKNSELFNYFRDKAFPNLSARRLGVMPDLVLDMFINGYYLNVTKTQTTDVNRTYQEKDKRGGIFDAVFTRGDQSKLLTSRHDFKEKGLKEISDLIKQELTEGKALGLSHTYANVRIGHVINLWGADFDSDGNLKAIYVTDSDSNASIGMKKYGVGVNSAGKVAISAKEIKEDNIGAQVLGLFTLSTGQDIWNQTN
OUT: 955

IN: # lookup: Enzyme Activity Endpoint Assay (purified): Fab'2 of PRT-327 (protein) MTITSVWTKGVTPPTPEDFRENNEDVLHAPYVANQGWYDITKTFDGKDNLLCGAATAGNMLHWWFDQNKEEIERYLKKHPEKQKIIFNNQELFDVKAAIDTKDSQTNSKLFDYFRDKAFPNLSARQLGVMPDLVLDMFINGYYLNLGKTQSTDVNRPYQDKDKRGGIFDAVFTRGDQTTLLTARHDLKNKGLNEISDLIKQELTEGKALALSHTYANVRINHVINLWGADFDAEGELIAIYVTDSDANPSIGMKKYFVGRNANGKVAISAKKIEGDNIGAQVLGLFTLSTGQDIWQKLS
OUT: 460
